Compiled literature pKi, tested on Vasopressin V1b receptor (Homo sapiens, UniProt P47901).
Sequence (P47901 whole entry): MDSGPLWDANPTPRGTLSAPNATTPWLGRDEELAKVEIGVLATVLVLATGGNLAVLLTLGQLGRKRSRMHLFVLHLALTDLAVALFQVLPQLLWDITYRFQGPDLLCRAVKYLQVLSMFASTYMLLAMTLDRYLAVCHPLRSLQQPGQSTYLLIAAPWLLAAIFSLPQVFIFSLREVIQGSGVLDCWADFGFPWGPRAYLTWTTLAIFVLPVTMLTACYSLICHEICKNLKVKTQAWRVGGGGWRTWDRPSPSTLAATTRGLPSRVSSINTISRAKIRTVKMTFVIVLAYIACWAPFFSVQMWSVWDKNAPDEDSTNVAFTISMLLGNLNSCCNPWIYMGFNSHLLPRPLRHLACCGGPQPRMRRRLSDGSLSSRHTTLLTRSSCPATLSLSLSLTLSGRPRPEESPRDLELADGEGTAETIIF
pKi: −log10 of the molar value.

Worked set:
Cc1ccccc1C(=O)Nc1ccc(C(=O)N2CCCC(N(C)C)c3ccccc32)cc1 (stereo unspecified) ... < 5.00
O=c1cc(O)cc2oc(-c3ccc(O)c(-c4c(O)cc(O)c5c(=O)cc(-c6ccc(O)cc6)oc45)c3)cc(O)c1-2 ... < 5.00
CC(C)=CCC[C@]1(C)[C@@H](CC=C(C)C)C[C@]2(CC=C(C)C)C(=O)C(CC=C(C)C)C(=O)[C@]1(C(=O)C(C)C)C2=O (stereo partly specified) ... < 5.00
COc1ccc(S(=O)(=O)N2C(=O)C(c3ccccc3OC)(N3CC4(CN(C5CCN(C)CC5)C4)C3)C3C=C(C#N)C=CC32)nc1 (stereo unspecified) ... > 9.00
N[C@H](CS(=O)(=O)O)C(=O)O ... < 5.00

Give me pKi for each of these molecules, listed below.
1. CO/N=C1/C[C@@H](C(=O)NC[C@@H](O)c2ccccc2)N(C(=O)c2ccc(-c3ccccc3C)cc2)C1
2. NC(CS(=O)O)C(=O)O (stereo unspecified)
3. CSCC[C@@H](N)C(=O)O
4. N[C@@H](CCS)C(=O)O (racemic)
5. N[C@H](CCS(=O)O)C(=O)O
6. CCOc1ccc(OC)cc1C1(N2CC3(CN(N4CCN(C)CC4)C3)C2)C(=O)N(S(=O)(=O)c2ccc(OC)cn2)C2C=CC(C#N)=CC21 (racemic)

< 5.00
< 5.00
< 5.00
< 5.00
< 5.00
> 9.00
